# Test Target: human STING (hSTING) (Homo sapiens, UniProt Q86WV6)
# Construct: host or cells: HEK-Blue ISG cells (HEK293-derived SEAP reporter line)
# Sequence (Q86WV6 whole entry H232R): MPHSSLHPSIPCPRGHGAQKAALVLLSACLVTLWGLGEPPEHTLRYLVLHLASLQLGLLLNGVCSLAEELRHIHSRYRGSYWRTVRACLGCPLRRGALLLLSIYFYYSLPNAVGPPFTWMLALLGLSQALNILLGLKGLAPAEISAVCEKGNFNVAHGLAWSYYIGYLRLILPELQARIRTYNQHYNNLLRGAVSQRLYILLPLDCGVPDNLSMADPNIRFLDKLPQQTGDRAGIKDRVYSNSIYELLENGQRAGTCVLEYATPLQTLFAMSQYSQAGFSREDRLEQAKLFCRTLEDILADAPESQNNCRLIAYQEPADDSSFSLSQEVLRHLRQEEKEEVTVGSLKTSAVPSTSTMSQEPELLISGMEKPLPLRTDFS
# Protocol: Inhibition test of intracellular human STING (hSTING) pathway using SEAP reporter cells (HEK-Blue ISG), stimulation with Compound 3
# Type: cell-based
# Set-up: scale not given here
# Measurement Context: Compound 3 10 nM stimulation, 21 hours
Property: hSTING inhibitory activity

Some solved entries appear below for comparison.
Ask: hSTING inhibitory activity lookup needed for "CS(=O)(=O)c1cccc(Oc2ccc3[nH]c(Nc4c[nH]c5ccc(Br)nc45)nc3c2)c1" , thanks.
Reply: * *

Ask: hSTING inhibitory activity lookup needed for "CNn1c(Nc2c[nH]c3ccc(C)cc23)nc2cc(C(F)(F)F)cc(F)c21" , thanks.
Reply: * * *

Ask: hSTING inhibitory activity lookup needed for "Cn1c(Nc2c[nH]c3ccc(Br)nc23)nc2cc(Oc3ccccc3)ccc21" , thanks.
Reply: * * *

Ask: hSTING inhibitory activity lookup needed for "O=S(=O)(c1ccccc1)c1ccc2[nH]c(Nc3c[nH]c4ccc(Br)cc34)nc2c1" , thanks.
Reply: * *

Ask: hSTING inhibitory activity lookup needed for "CN(C)c1cccc(Oc2ccc3[nH]c(Nc4c[nH]c5ccc(Br)nc45)nc3c2)c1" , thanks.
Reply: * *

Next:
Ask: hSTING inhibitory activity lookup needed for "C#CCn1c(Nc2c[nH]c3ccc(Cl)cc23)nc2cc(C(F)(F)F)ccc21" , thanks.
Reply: * * *

Ask: hSTING inhibitory activity lookup needed for "Cn1c(Nc2c[nH]c3ccc(Cl)cc23)nc2cc(C(F)(F)F)cc(Cl)c21" , thanks.
Reply: * * *

Ask: hSTING inhibitory activity lookup needed for "Cn1c(Nc2c[nH]c3ccc(Br)cc23)nc2ccccc21" , thanks.
Reply: * *

Ask: hSTING inhibitory activity lookup needed for "Clc1ccnc2c(Nc3nc4cc(Oc5ccccc5)ccc4[nH]3)c[nH]c12" , thanks.
Reply: * *

Ask: hSTING inhibitory activity lookup needed for "Brc1ccc2[nH]cc(Nc3nc4cc(-c5ccccc5)ccc4[nH]3)c2n1" , thanks.
Reply: * * *
